Molecular target: Cytochrome P450 1A2 (Homo sapiens) (UniProt P05177)
Sequence (P05177 whole entry, looked up): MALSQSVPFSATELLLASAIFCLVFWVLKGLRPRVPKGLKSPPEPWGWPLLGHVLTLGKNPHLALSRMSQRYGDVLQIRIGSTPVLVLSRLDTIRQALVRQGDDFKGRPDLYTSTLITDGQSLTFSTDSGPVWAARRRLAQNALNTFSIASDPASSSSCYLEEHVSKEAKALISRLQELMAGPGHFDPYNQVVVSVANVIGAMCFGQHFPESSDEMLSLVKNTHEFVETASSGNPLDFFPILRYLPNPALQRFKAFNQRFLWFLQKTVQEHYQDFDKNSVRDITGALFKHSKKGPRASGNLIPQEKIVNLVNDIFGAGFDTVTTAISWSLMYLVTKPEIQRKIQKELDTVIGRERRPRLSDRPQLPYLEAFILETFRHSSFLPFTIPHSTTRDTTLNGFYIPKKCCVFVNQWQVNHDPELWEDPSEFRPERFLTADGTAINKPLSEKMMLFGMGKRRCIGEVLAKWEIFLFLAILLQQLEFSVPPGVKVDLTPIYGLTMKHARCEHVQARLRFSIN
Test: Cytochrome panel assay with activity outcomes
Conditions: recombinant CYP, pro-luciferin dealkylation, luminescence, p450-cyp1a2; series mostly up to 57.1 µM
About 5,700 (36%) of roughly 16,000 compounds were called active. About 24% were inconclusive and are not listed. The list shows a part of the results.
QUANTITY: AC50

{"columns": ["COMPOUND", "REPORTED MEASUREMENT"],
 "data": [
  ["CCCCN(C)CCCNC(=O)CS(=O)Cc1nc(-c2ccc(OC)c(OC)c2)oc1C (stereo not drawn)", "inactive"],
  ["NCCOB(c1ccccc1)c1ccccc1", "15.8 µM (active)"],
  ["COc1ccc(CCNC(=O)CC(NS(=O)(=O)c2ccc(NC(C)=O)cc2)C(C)C)cc1OC (stereo not drawn)", "inactive"],
  ["C=C(CC)C(=O)c1ccc(OCC(=O)O)c(Cl)c1Cl", "inactive"],
  ["O=[n+]1c2c(n([O-])c3cc(F)c(F)cc31)CCCC2", "14.1 µM (active)"],
  ["Cc1cc2nc(CCN(C(=S)NCC(C)C)C3CCCC3)[nH]c2cc1C", "3.16 µM (active)"],
  ["CNC(C)c1cc(OC)ccc1OC (stereo not drawn)", "inactive"],
  ["CCN(CC)S(=O)(=O)c1ccc(C(=O)Nc2ncn(Cc3ccccc3)n2)cc1", "inactive"],
  ["Cc1ccc(S(=O)(=O)CCCS(=O)(=O)c2ccc(C)cc2)cc1", "inactive"],
  ["CCCCN(CC)S(=O)(=O)c1ccc(C(=O)Nc2nnc(CSC)o2)cc1", "inactive"],
  ["O=C(c1cccc(F)c1)N1CCC2(CC1)CN(c1ccncc1)C2", "inactive"],
  ["O=C(ON=C1CCN(S(=O)(=O)c2ccccc2)CC1)c1ccccc1", "inactive"],
  ["Cc1ccc([N+](=O)[O-])cc1N=C(c1cccc([N+](=O)[O-])c1)N1CCOCC1", "inactive"],
  ["COc1cc(/C=C\\c2ccc(OC)cc2OC)cc(OC)c1", "0.794 µM (active)"],
  ["COC(=O)C(NS(=O)(=O)c1ccc(NC(C)=O)cc1)C(C)C (stereo not drawn)", "inactive"],
  ["COc1cccc(Nc2nc(-c3ccc(O)cc3)cs2)c1", "1 µM (active)"],
  ["CCOc1ccc(-c2c[n+](=O)c3c(n2[O-])CCCC3)c(OCC)c1", "inactive"],
  ["COc1ccc(CONS(=O)(=O)c2ccc(NC(C)=O)cc2)cc1Cl", "14.1 µM (active)"],
  ["CCC(=O)N1CCN(c2ccc(NC(=O)c3cccs3)cc2)CC1", "inactive"],
  ["COc1ccc(OC)c(Nc2nc(-c3sc(NC(=O)c4ccccc4)nc3C)cs2)c1", "inactive"],
  ["CC(=O)NN1C(=O)c2ccc(Oc3ccc([N+](=O)[O-])cc3)cc2C1=O", "inactive"],
  ["CN1/C(=C\\C=[N+](C)c2ccccc2)C(C)(C)c2ccccc21", "inactive"],
  ["Cc1ccc(S(=O)(=O)CC#CCOC(=O)c2ccc([N+](=O)[O-])cc2)cc1", "6.31 µM (active)"]
]}
